targetOfAssay: pERK1/2 (Thr202/Tyr204), NCI-1H441 (KRAS G12V) (Homo sapiens, UniProt P01116, G12V)
Construct: pERK1/2 HTRF read-out
Sequence (P01116 1-188 isoform P01116-2 G12V): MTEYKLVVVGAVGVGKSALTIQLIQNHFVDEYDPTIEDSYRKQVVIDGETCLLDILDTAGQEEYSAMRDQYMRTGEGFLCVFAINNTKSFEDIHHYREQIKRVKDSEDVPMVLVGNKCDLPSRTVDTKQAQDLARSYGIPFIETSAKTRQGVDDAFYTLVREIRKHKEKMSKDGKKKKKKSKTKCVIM
test: Assay of intracellular pERK1/2 (Thr202/Tyr204) phosphorylation in NCI-H441 cells (KRAS G12V)
Assay type: cell-based
experimentalConditions: pERK1/2, 2 days, read-out: NCI-H441 (KRAS G12V) IC50
measurementType: IC50 (nM)

* [2H][C@@]1(F)CN2CCC[C@@]2(COc2nc3c4c(nc(-c5cc(N)c(F)c(C)c5C(F)(F)F)c(F)c4n2)OCCN3C(C)c2cccnc2N)C1 (single isomer, unassigned) | 2

I. Cc1c(F)c(N)cc(-c2nc3c4c(nc(OC[C@@]56CCCN5CC(F)(F)C6)nc4c2F)N(C(C)c2cccnc2N)CCO3)c1C(F)(F)F (some centres unmarked)
II. CCc1c(F)ccc2cc(O)cc(-c3nc4c5c(nc(OC[C@@]67CCCN6C[C@H](F)C7)nc5c3F)N(C(C)c3cccnc3N)[C@@H](C)CO4)c12 (single isomer, unassigned) [Compound 280]
input: Could you kindly indicate whether I or II has the higher IC50 value? Mark your answer with the label of the selected entry.
output: II
(II: 11 nM, I: 2 nM)

* * *

targetOfAssay: pERK1/2 (Thr202/Tyr204), NCI-1H358 (KRAS G12C) (Homo sapiens, UniProt P01116, G12C)
Construct: pERK1/2 HTRF read-out
Sequence (P01116 1-188 isoform P01116-2 G12C): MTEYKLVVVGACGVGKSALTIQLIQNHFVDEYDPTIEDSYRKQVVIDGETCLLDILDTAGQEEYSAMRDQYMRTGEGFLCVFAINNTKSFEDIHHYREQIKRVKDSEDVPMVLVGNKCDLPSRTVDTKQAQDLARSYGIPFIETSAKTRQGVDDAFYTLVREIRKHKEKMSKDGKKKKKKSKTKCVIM
test: Assay of intracellular pERK1/2 (Thr202/Tyr204) phosphorylation in NCI-H358 cells (KRAS G12C)
Assay type: cell-based
experimentalConditions: pERK1/2, 2 days, read-out: NCI-H358 (KRAS G12C) IC50
pIC50: −log10 of the molar value.
measurementType: pIC50

- CC(c1cccnc1N)N1CCOc2nc(-c3cc(O)cc4ccc(F)c(F)c34)c(F)c3nc(OC[C@@H]4CCCN4C)nc1c23 (some centres unmarked) [Compound 6]: 8.40
- CC(c1cccnc1N)N1c2nc(OC[C@@]34CCCN3C[C@H](F)C4)nc3cc(-c4c5ccccc5cc5[nH]ncc45)nc(c23)OC[C@@H]1C (some centres unmarked): 9.40
- CC(c1cccnc1N)N1CCOc2nc(-c3cc(N)cc(F)c3C(F)(F)F)c(F)c3nc(OC[C@@]45CCCN4C[C@H](F)C5)nc1c23 (some centres unmarked) [Compound 82]: 9.10
- Cc1cc(N)cc(-c2nc3c4c(nc(OC[C@@]56CCCN5C[C@H](F)C6)nc4c2F)N(C(C)c2cccnc2N)[C@@H](C)CO3)c1C(F)(F)F (single isomer, unassigned) [Compound 267]: 9.52
- [2H]C1([2H])CC[C@@]2(C([2H])([2H])Oc3nc4c5c(nc(-c6cc(N)c(F)c(C)c6C(F)(F)F)c(F)c5n3)OCCN4C(C)c3cccnc3N)C[C@]([2H])(F)CN12 (single isomer, unassigned; diastereomer 2): 9.00

A. CC(c1cccnc1N)N1CCOc2nc(-c3cc(O)cc(F)c3C3CC3)c(F)c3nc(OC[C@@H]4CCN4CC(F)F)nc1c23 (single isomer, unassigned) [Compound 24]
B. CCC(c1cccnc1N)N1CCOc2nc(-c3cc(N)c(F)c(Cl)c3C(F)(F)F)c(F)c3nc(OC[C@@]45CCCN4C[C@H](F)C5)nc1c23 (single isomer, unassigned) [Compound 214]
C. CC(c1cccnc1N)N1CCOc2nc(-c3cc(N)ccc3C(F)(F)F)c(F)c3nc(OC[C@@H]4CC(F)(F)CN4C)nc1c23 (some centres unmarked)
D. CC(c1cccnc1N)N1CCOc2nc(-c3cc(N)cc(Cl)c3C(F)(F)F)c(F)c3nc(OC[C@@H]4CCCN4C)nc1c23 (some centres unmarked) [Compound 64]
input: Your job: order these 4 records by pIC50, ascending. // ordering of labels required in reply
output: C, A, D, B
(C: 7.96, A: 8.52, D: 9.22, B: 9.70)

P. CC(c1cccnc1N)N1c2nc(OC[C@@H]3C[C@@H](F)CN3C)nc3c(F)c(-c4cc(N)c(F)c(Cl)c4C(F)(F)F)nc(c23)OC[C@@H]1C (some centres unmarked)
Q. Cc1nc(N)cc(-c2nc3c4c(nc(OC[C@@]56CCCN5C[C@H](F)C6)nc4c2F)N(C(C)c2cccnc2N)CCO3)c1C(F)(F)F (some centres unmarked)
R. [2H]C([2H])(Oc1nc2c3c(nc(-c4cc(N)cc(Cl)c4C(F)(F)F)c(F)c3n1)OCCN2C(C)c1cccnc1N)[C@@H]1CCC([2H])([2H])N1C([2H])([2H])[2H] (some centres unmarked)
input: Order by pIC50, ascending. Answer by listing the labels in the requested order.
output: R, Q, P
(R: 9.00, Q: 9.22, P: 9.52)
